Molecular target: Small ribosomal subunit protein uS2 (Homo sapiens)
Experiment: Binding affinity to LAMR1 in human HT1080 cells assessed as maximal cell attachment to compound coated plates after 3 hrs by hemocytometer
Type: cell-based
Details: HT-1080
Where a SMILES comes first, the peptide text is derived from it.
Endpoint Name: Activity (%)

* CC[C@H](C)[C@@H]1NC(=O)[C@H](Cc2ccc(O)cc2)NC(=O)[C@H](CC(N)=O)NC(=O)[C@H](CCCNC(=N)N)NC(=O)[C@H](CO)NC(=O)[C@@H](CO)NC1=O | 81
* CC[C@H](C)[C@@H]1NC(=O)[C@H](Cc2ccc(O)cc2)NC(=O)[C@H](CC(N)=O)NC(=O)[C@H](CCCNC(=N)N)NC(=O)[C@H](CO)NC(=O)[C@@H]2CCCN2C(=O)[C@H]([C@@H](C)CC)NC(=O)[C@H](Cc2ccc(O)cc2)NC(=O)[C@H](CC(N)=O)NC(=O)[C@H](CCCNC(=N)N)NC(=O)[C@H](CO)NC(=O)[C@@H]2CCCN2C1=O (cyclo(IPSRNYIPSRNY)) | 57
* CC[C@H](C)[C@@H]1NC(=O)[C@H](Cc2ccc(O)cc2)NC(=O)CNC(=O)[C@@H]2CCCN2C(=O)[C@H](CC(=O)O)NC(=O)[C@H](CCCNC(=N)N)NC(=O)[C@H](CO)NC(=O)[C@@H](CCCCN)NC1=O | 45
* CC[C@H](C)[C@@H]1NC(=O)[C@H](Cc2ccc(O)cc2)NC(=O)[C@H](CC(N)=O)NC(=O)[C@H](CCCNC(=N)N)NC(=O)[C@H](CO)NC(=O)[C@@H](CCCCN)NC1=O | 64
* CC[C@H](C)[C@@H]1NC(=O)[C@H](Cc2ccc(O)cc2)NC(=O)[C@H](CC(N)=O)NC(=O)[C@H](CCCNC(=N)N)NC(=O)[C@H](CO)NC(=O)[C@@H]2CCCN2C1=O (cyclo(IPSRNY)) | 53

----------
Molecular target: Small ribosomal subunit protein uS2 (Homo sapiens)
Experiment: Binding affinity to LAMR1 in human HeLa cells assessed as maximal cell attachment to compound coated plates after 3 hrs by hemocytometer
Assay type: cell-based
Where a SMILES comes first, the peptide text is derived from it.
Each record here notes measured Activity.
Endpoint Name: Activity (%)

- CC[C@H](C)[C@@H]1NC(=O)[C@H](Cc2ccc(O)cc2)NC(=O)[C@H](CC(N)=O)NC(=O)[C@H](CCCNC(=N)N)NC(=O)[C@H](CO)NC(=O)[C@@H]2CCCN2C1=O (cyclo(IPSRNY)): 32
- CC[C@H](C)[C@@H]1NC(=O)[C@H](Cc2ccc(O)cc2)NC(=O)[C@H](CC(N)=O)NC(=O)[C@H](CCCNC(=N)N)NC(=O)[C@H](CO)NC(=O)[C@@H](CCC(=O)O)NC1=O: 43
- CC[C@H](C)[C@@H]1NC(=O)[C@H](Cc2ccc(O)cc2)NC(=O)CNC(=O)[C@@H]2CCCN2C(=O)[C@H](CC(=O)O)NC(=O)[C@H](CCCNC(=N)N)NC(=O)[C@H](CO)NC(=O)CNC1=O (cyclo(DPGYIGSR)): 40
- CC[C@H](C)[C@@H]1NC(=O)[C@H](Cc2ccc(O)cc2)NC(=O)[C@H](CC(N)=O)NC(=O)[C@H](CCCNC(=N)N)NC(=O)[C@H](CO)NC(=O)[C@@H](CO)NC1=O: 46
- CC[C@H](C)[C@@H]1NC(=O)[C@H](Cc2ccc(O)cc2)NC(=O)CNC(=O)[C@H](CCCNC(=N)N)NC(=O)[C@H](CO)NC(=O)[C@@H](CO)NC1=O: 45
